measured on: HLA-A*11:01
measurement notes: IEDB peptide-MHC binding, purified MHC/direct/fluorescence; filed as Kd, often an IC50 or EC50 that approximates it; bounds were set here for any values at or beyond the usual limits of such assays
conditions: source organism: Camelpox virus M-96
readout: pKd
One number for each entry, as −log10 of the molar value.

# return pKd for SLFTEQAFY , test system: HLA-A*11:01
5.95

* * *

Please provide measured Kd for the entries that follow.
measured on: HLA-A*02:01
measurement notes: IEDB peptide-MHC binding, purified MHC/competitive/radioactivity; filed as Kd, often an IC50 or EC50 that approximates it; bounds were set here for any values at or beyond the usual limits of such assays
conditions: source organism: Dengue virus 2 Jamaica/1409/1983
Numbers only, in nM.

LQMEDKAWLV : 3.64

Kindly consider the entry below.
Retrieve Kd measured for LVISGVFPV and print it.
29.3

All figures here come from the Immune Epitope Database (IEDB).
